# mass density per record follows
Conditions: 293.15 K; 101.3 kPa; Liquid
Quick note: give the figure in kg/m3, leave out the unit.

These solved cases illustrate the format of a correct answer.
COCCOCCOCCO [2-[2-(2-methoxyethoxy)ethoxy]ethanol] :: 1047.29
COCCO :: 964.88
CCOC(C)(C)C :: 741.11

// next entry
Exercise: Please supply the value of reported mass density for the item COCCOCCO
Key: 1020.8

====

Details: 308.15 K; 101.3 kPa; Liquid
readoutKind: mass density (kg/m3)
Provide only the numeric value, understood in kg/m3.

Please review the following examples before continuing.
COCCOCCOCCO [2-[2-(2-methoxyethoxy)ethoxy]ethanol] :: 1034.33
CCOC(C)(C)C :: 725.98
COCCO :: 951.1

Consider the record given below.
Exercise: Name the recorded mass density of the item COCCOCCO in your answer.
Key: 1007.69

====

Conditions: 303.15 K; 101.3 kPa; Liquid
readoutKind: mass density (kg/m3)
Provide only the numeric value, understood in kg/m3.

COCCOCCO :: 1011.83

Exercise: Provide only the value of recorded mass density for COCCOCCOCCO [2-[2-(2-methoxyethoxy)ethoxy]ethanol]
Key: 1038.65

Exercise: Return mass density for the following compound: COCCO
Key: 955.76

Exercise: Input CCOC(C)(C)C , output reported mass density.
Key: 730.85

====

Conditions: 298.15 K; 101.3 kPa; Liquid
readoutKind: mass density (kg/m3)
# output: bare number, implied unit kg/m3

# annotated cases, reported mass density shown
COCCOCCOCCO [2-[2-(2-methoxyethoxy)ethoxy]ethanol] :: 1042.97
COCCO [2-methoxyethan-1-ol] :: 960.29
COCCOCCO [2-(2-methoxyethoxy)ethanol] :: 1016.4

Next molecule, mass density to be filled in.
Exercise: Answer with the recorded mass density for the molecule listed here: CCOC(C)(C)C [2-ethoxy-2-methylpropane]
Key: 735.59

====

Details: 313.15 K; 101.3 kPa; Liquid
readoutKind: mass density (kg/m3)
The reply should be a number in kg/m3, with the unit left off.

Examples from the recorded data:
COCCOCCOCCO [2-[2-(2-methoxyethoxy)ethoxy]ethanol] :: 1030.01
CCOC(C)(C)C :: 720.69
COCCO :: 946.54

Exercise: Give the reported value of mass density for this record: COCCOCCO
Key: 1003.22
